Molecular target: T1, human TNFR2 (Homo sapiens, UniProt P20333 23-461)
T1 construct: also called hTNFR2; TNFRSF1B
T1 sequence: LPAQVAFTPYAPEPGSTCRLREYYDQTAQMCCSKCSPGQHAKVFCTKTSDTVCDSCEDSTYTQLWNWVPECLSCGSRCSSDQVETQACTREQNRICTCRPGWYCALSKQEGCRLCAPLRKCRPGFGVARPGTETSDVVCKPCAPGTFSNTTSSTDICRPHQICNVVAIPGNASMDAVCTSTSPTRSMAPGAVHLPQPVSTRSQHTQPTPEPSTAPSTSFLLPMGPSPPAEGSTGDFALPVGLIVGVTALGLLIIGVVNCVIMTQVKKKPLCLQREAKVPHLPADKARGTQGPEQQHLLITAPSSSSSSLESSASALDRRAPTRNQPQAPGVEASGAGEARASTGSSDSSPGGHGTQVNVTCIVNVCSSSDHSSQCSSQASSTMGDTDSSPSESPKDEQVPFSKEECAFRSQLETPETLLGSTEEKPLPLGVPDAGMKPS
Assay: binding to cells stably overexpressing human TNFR2, serial dilutions, flow cytometry or imaging
pEC50: −log10 of the molar value.
REPORTED ENDPOINT: pEC50

binder="R2_mAb-2 (antibody, V domains shown, also called R2-2) VH: QVQLVQSGPEVKKPGASVKVSCKASGYTFTNYGISWVRQAPGQGLEWMGWINAYNGNTNYAQKLQGRVTMTTDTSTSTAYMELRSLRSDDTAVYYCARDGGYGSGTYHNDYYYYYGMDVWGQGTTVTVSS VL: EIVLTQSPDFQSMTPEEKVTITCRASQSIGSNLHWYQQKPDQSPKLLIKFASQSISGVPSRFSGSGSGTDFTLTINSLEAEDAATYYCHQSSSLPFTFGPGTKVDIK" measured_result=9.46

Cited source: patent US20240067740A1
